Each recorded value in this set is attributed to patent US11142524B2.

procedure.details: Mouse PK Profile
Assay type: in vivo
stated.conditions: plasma, read-out: AUCINF obs
readout.kind: AUC(0-inf)
Remember to quote the unit after the number.

Qu. What does the record list as AUC(0-inf) for COc1ccc(NC(=O)CSc2nc3c(C)c(C#N)ncc3[nH]2)cc1OP(=O)(O)O [Compound 107-02] ?
Ans. 1650 ng·h/mL

---

procedure.details: Physicochemical profile of 107-02 (PSA, Log P, Log S, solubility)
stated.conditions: pH 7.4
readout.kind: logP
// no unit string in output, number only

Qu. What does the record list as logP for COc1ccc(NC(=O)CSc2nc3c(C)c(C#N)ncc3[nH]2)cc1OP(=O)(O)O [Compound 107-02] ?
Ans. 0.009

---

procedure.details: Physicochemical profile of 107-02 (PSA, Log P, Log S, solubility)
readout.kind: solubility (µg/mL)
Supply the numeric figure in µg/mL, leaving out any unit text.

Qu. What does the record list as solubility for COc1ccc(NC(=O)CSc2nc3c(C)c(C#N)ncc3[nH]2)cc1OP(=O)(O)O [Compound 107-02] ?
Ans. 640

---

experimental.target: ENPP1 protein (Homo sapiens (Human), UniProt P22413)
Sequence (P22413 whole entry, looked up, change not shown): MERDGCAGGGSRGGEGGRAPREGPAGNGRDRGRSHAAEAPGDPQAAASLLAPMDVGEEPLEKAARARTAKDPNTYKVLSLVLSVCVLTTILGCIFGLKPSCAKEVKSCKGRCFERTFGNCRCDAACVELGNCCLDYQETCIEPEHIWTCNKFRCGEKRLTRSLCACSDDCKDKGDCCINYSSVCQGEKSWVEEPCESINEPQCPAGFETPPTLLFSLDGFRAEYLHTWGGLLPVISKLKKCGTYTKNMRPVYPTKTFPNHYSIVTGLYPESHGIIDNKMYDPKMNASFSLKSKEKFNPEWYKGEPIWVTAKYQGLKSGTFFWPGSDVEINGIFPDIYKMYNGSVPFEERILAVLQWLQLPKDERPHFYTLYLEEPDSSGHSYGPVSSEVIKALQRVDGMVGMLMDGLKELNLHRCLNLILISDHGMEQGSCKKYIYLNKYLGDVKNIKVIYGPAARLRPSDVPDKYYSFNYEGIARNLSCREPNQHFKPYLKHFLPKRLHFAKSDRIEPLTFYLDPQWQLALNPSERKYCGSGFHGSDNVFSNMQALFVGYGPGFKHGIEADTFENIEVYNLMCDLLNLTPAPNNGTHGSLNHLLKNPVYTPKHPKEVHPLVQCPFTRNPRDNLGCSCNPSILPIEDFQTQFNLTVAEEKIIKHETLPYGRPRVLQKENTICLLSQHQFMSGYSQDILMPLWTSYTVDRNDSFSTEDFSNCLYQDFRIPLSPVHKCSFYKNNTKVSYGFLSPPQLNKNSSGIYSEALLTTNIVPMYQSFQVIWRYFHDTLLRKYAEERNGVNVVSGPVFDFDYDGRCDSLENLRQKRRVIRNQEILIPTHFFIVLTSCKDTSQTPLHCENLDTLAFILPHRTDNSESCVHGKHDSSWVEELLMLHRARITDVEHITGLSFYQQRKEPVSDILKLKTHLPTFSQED
procedure.details: ENPP1 Inhibition Assay (thymidine 5′-monophosphate p-nitrophenol ester substrate)
Type: biochemical
stated.conditions: Tables 3 and 4; read-out: ENPP1 inhibition (IC50)
pIC50: −log10 of the molar value.
readout.kind: pIC50

Qu. What does the record list as pIC50 for O=C(CSc1nc2cc(Cl)ncc2[nH]1)Nc1ccc2c(c1)OCO2 [Compound 7] ?
Ans. < 4.30

---

Assign log10(IC50) to each entry below.
experimental.target: Recombinant Human ENPP-1 Protein (purified in-house) (Homo sapiens (Human), UniProt P22413)
Sequence (P22413 whole entry, looked up): as the sequence (P22413 whole entry, looked up, change not shown) above
procedure.details: ENPP1 Assay (ATP), Example 2
Assay type: biochemical
stated.conditions: Table 5, ATP substrate; read-out: ENPP1 (IC50 μM) ATP
Reminder: these figures are log10 of reported IC50, in µM before transformation.

Qu. What does the record list as log10(IC50) for COc1ccc(NC(=O)CSc2nc3c(C)c(C#N)ncc3[nH]2)cc1O [Compound 78] ?
Ans. -0.94

Qu. What does the record list as log10(IC50) for COc1ccc(NC(=O)CSc2nc3c(C)c(C#N)ncc3[nH]2)cc1OP(=O)(O)O [Compound 107-02] ?
Ans. -0.68

Qu. What does the record list as log10(IC50) for COc1cc(NC(=O)CSc2nc3c(C)c(C#N)ncc3[nH]2)ccc1OP(=O)([O-])[O-].[Na+].[Na+] [Compound 108, phosphate] ?
Ans. -0.47

Qu. What does the record list as log10(IC50) for COc1ccc(NC(=O)CSc2nc3c(C)c(C#N)ncc3[nH]2)cc1OCCO [Compound 109] ?
Ans. 0.51

Qu. What does the record list as log10(IC50) for COc1ccc(NC(=O)c2cnc(CSc3nc4c(C)c(C#N)ncc4[nH]3)s2)cc1O [Compound 115] ?
Ans. -0.71

---

experimental.target: ENPP1 protein (Homo sapiens (Human), UniProt P22413)
procedure.details: ENPP1 Inhibition Assay (thymidine 5′-monophosphate p-nitrophenol ester substrate)
Format: biochemical
stated.conditions: Table 1, FIG. 1; read-out: IC50
readout.kind: pIC50
Conceptually, pIC50 converts a concentration in mol/L into minus its log10.

Qu. What does the record list as pIC50 for COc1ccc(NC(=O)CSc2nc3cc(Cl)ncc3[nH]2)cc1O ?
Ans. 7.06

Qu. What does the record list as pIC50 for COc1ccc(NC(=O)CSc2nc3cc(C#N)ncc3[nH]2)cc1OC ?
Ans. 6.94

Qu. What does the record list as pIC50 for COc1ccc(NC(=O)CSc2nc3c(C)c(C#N)ncc3[nH]2)cc1O ?
Ans. 7.10

---

procedure.details: Mouse PK Profile
Assay type: in vivo
stated.conditions: plasma
readout.kind: AUC(0-t)

Qu. What does the record list as AUC(0-t) for COc1ccc(NC(=O)CSc2nc3c(C)c(C#N)ncc3[nH]2)cc1OP(=O)(O)O ?
Ans. 1640 ng·h/mL

---

experimental.target: ENPP1 protein (Homo sapiens (Human))
procedure.details: ENPP1 Thermal Shift Assay (Example 1)
Assay type: binding
stated.conditions: Table 2, FIG. 7; 100 μM drug, 1.0 μg ENPP1; NT 60.05
Assign Tm (° C.) to each entry below.
Remember to quote the unit after the number.

Qu. What does the record list as Tm (° C.) for COc1ccc(NC(=O)CSc2nc3c(C)c(C#N)ncc3[nH]2)cc1O ?
Ans. 61.16 °C

Qu. What does the record list as Tm (° C.) for COc1cc(NC(=O)CSc2nc3cc(Cl)ncc3[nH]2)ccc1O ?
Ans. 61.37 °C

Qu. What does the record list as Tm (° C.) for COc1cc(NC(=O)CSc2nc3c(C)c(C#N)ncc3[nH]2)ccc1OP(=O)([O-])[O-].[Na+].[Na+] ?
Ans. 63.60 °C

Qu. What does the record list as Tm (° C.) for COc1ccc(NC(=O)CSc2nc3c(C)c(C#N)ncc3[nH]2)cc1OP(=O)(O)O ?
Ans. 63.89 °C

---

experimental.target: Recombinant Human ENPP-1 Protein (purified in-house) (Homo sapiens (Human), UniProt P22413)
procedure.details: ENPP1 Assay (ATP), Example 2
Assay type: biochemical
stated.conditions: Table 5, ATP substrate; phosphate; read-out: ENPP1 (IC50 μM) ATP
readout.kind: IC50 (µM)
Supply the numeric figure in µM, leaving out any unit text.

Qu. What does the record list as IC50 for COc1ccc(NC(=O)CSc2nc3c(C)c(C#N)ncc3[nH]2)cc1OP(=O)(O)O [Compound 107, phosphate] ?
Ans. 0.116

---

procedure.details: Mouse PK Profile
Type: in vivo
stated.conditions: plasma
readout.kind: half-life (h)
Supply the numeric figure in h, leaving out any unit text.

Qu. What does the record list as half-life for COc1ccc(NC(=O)CSc2nc3c(C)c(C#N)ncc3[nH]2)cc1OP(=O)(O)O ?
Ans. 1.83

---

experimental.target: Recombinant Human ENPP-1 Protein (purified in-house) (Homo sapiens (Human), UniProt P22413)
procedure.details: ENPP1 Assay (TMP), Example 2
Type: biochemical
stated.conditions: Table 5, TMP substrate; read-out: ENPP1 (IC50 μM) TMP
Experimental: Enzyme: 1 ng/μL Recombinant Human ENPP-1 Protein (purified in-house)—Assay Conc.: 5 ng/well of DMSO in 96-well clear assay plates. A ten point serial dilution of drugs was prepared in 10× in assay buffer with the final assay concentrations starting at 10 μM, 3 μM, 1 μM, 0.3 μM . . . 0 μM. A dilution of DMSO was included as a control. […] The reaction was quantified by measuring absorbance at 405 nm using the Envision Plate Reader.
Counter-ions that a name gives are not always drawn.
Assign IC50 to each entry below.

Qu. What does the record list as IC50 for COc1ccc(NC(=O)CSc2nc3c(C)c(C#N)ncc3[nH]2)cc1S(C)(=O)=O ?
Ans. > 50 µM

Qu. What does the record list as IC50 for Cc1c(C#N)ncc2[nH]c(SCC(=O)Nc3ccc(F)c(OCCO)c3)nc12 ?
Ans. > 50 µM

Qu. What does the record list as IC50 for COc1nc(NC(=O)CSc2nc3c(C)c(C#N)ncc3[nH]2)ccc1O ?
Ans. > 50 µM

Qu. What does the record list as IC50 for COc1ccc(NC(=O)CSc2nc3c(C)c(C#N)ncc3[nH]2)cc1N[C@H]1CC[C@H](N)CC1 ?
Ans. > 50 µM

Qu. What does the record list as IC50 for COc1ccc(NC(=O)CSc2nc3c(C)c(C#N)ncc3[nH]2)cc1N1CCC(O)CC1 [Compound 112, hydrochloride] ?
Ans. > 50 µM
